- tgt: STAT5b (SH2 domain) (Homo sapiens, UniProt P51692)
- Sequence (P51692 whole entry, the tested form may be a part): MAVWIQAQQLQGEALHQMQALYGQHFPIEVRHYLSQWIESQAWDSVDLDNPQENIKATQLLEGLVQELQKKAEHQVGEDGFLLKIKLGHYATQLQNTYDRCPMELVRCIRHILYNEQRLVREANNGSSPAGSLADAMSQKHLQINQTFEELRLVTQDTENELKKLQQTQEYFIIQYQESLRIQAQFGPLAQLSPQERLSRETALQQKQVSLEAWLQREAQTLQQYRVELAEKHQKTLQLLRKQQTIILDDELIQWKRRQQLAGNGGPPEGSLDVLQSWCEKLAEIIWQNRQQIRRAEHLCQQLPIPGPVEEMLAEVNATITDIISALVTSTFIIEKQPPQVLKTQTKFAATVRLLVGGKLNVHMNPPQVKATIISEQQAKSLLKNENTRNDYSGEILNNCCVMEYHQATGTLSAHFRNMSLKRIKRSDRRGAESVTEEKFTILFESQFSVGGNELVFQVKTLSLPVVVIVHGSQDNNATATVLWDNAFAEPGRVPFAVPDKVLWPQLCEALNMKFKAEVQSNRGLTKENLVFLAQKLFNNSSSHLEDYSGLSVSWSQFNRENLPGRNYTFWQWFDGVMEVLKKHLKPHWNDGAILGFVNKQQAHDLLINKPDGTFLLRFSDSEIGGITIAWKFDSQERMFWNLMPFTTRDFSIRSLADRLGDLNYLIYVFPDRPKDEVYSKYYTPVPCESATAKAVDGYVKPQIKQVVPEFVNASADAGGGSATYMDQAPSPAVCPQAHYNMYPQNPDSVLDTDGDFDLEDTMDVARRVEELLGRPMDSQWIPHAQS
metric: Ki (nM)

Any idea what Ki came out for O=C(NCCc1ccc(OP(=O)(O)O)c(OP(=O)(O)O)c1)OCC1c2ccccc2-c2ccccc21 [compound 7, Fmoc-protected dopamine bisphosphate] on STAT5b (SH2 domain) (Homo sapiens, UniProt P51692)?
450

Entry "COC(=O)[C@H](Cc1ccc(OP(=O)(O)O)c(OP(=O)(O)O)c1)NC(=O)OCC1c2ccccc2-c2ccccc21" , system STAT5b (SH2 domain) (Homo sapiens, UniProt P51692): what Ki was measured?
460

These entries and their values trace back to paper PMC4471549.
